Here, each record is paired with measured pKd data.
measurement.target: Recombinant BRD4(BD1) (Homo sapiens)
Construct: using the recombinant, individually purified bromodomains of BRD4 (GST-tagged BD1 and BD2); purchased BPS Biosciences, Inc 31,040
measurement.description: TR-FRET ligand displacement, recombinant GST-BRD4(BD1)
Assay type: binding
cond: GST-tagged, with 95% confidence interval
pKd: −log10 of the molar value.
attribute.measured: pKd

- molecule: "Cn1cc(-c2cccnc2Nc2ccc(F)cc2)c2cc[nH]c2c1=O [Compound 85A]"
  val: 7.12
- molecule: "Cn1ccc2c(-c3cccnc3Nc3ccc(F)cc3)c[nH]c2c1=O [Compound 85B]"
  val: 6.02
- molecule: "Cn1cc(-c2cccnc2Sc2ccc(F)cc2)c2cc[nH]c2c1=O [Compound 84A]"
  val: 6.52

###

measurement.target: Endogenous BRD4 (NPC) (Homo sapiens)
Construct: target engagement toward endogenous BRD4 derived from cellular lysates of cell types of interest; endogenous in cells
measurement.description: CoraFluor TR-FRET ligand displacement, endogenous BRD4 in NPC lysate
cond: with 95% confidence interval, read-out: Endogenous BRD4 (NPC), KD,app
Method: […] Unless otherwise noted, experiments were performed in white, 384-well microtiter plates (Corning 3572 or PerkinElmer ProxiPlate-384 Plus) in 30 μL or 10 μL assay volume, respectively. TR-FRET measurements were acquired on a Tecan SPARK plate reader with SPARKCONTROL software version V2.1 (Tecan Group Ltd.), with the following settings: 340/50 nm excitation, 490/10 nm (Tb), 520/10 nm (FITC) emission, 100 μs delay, and 400 μs integration. […]
Note to self: Kd under 400 nM means yes (1), ties and anything higher get no (0).

- molecule: "Cn1cc(-c2cccnc2Oc2cc(F)cc(F)c2)c2cc[nH]c2c1=O [Compound 82A]"
  assigned.label: "yes (1)"
- molecule: "Cn1ccc2c(-c3cccnc3Oc3ccc(F)cc3)c[nH]c2c1=O [Compound 18B]"
  assigned.label: "yes (1)"
- molecule: "Cn1ccc2c(-c3cccnc3Oc3cc(F)cc(F)c3)c[nH]c2c1=O [Compound 82B]"
  assigned.label: "no (0)"
- molecule: "Cn1cc(-c2cccnc2Sc2ccc(F)cc2)c2cc[nH]c2c1=O [Compound 84A]"
  assigned.label: "yes (1)"
- molecule: "Cn1cc(-c2cccnc2Oc2ccc(F)cc2)c2cc[nH]c2c1=O [Compound 18A]"
  assigned.label: "yes (1)"
- molecule: "Cn1ccc2c(-c3cccnc3Oc3ccc(F)c(F)c3)c[nH]c2c1=O [Compound 81B]"
  assigned.label: "no (0)"
- molecule: "Cn1ccc2c(-c3cc(F)cnc3Oc3ccc(F)cc3)c[nH]c2c1=O [Compound 86B]"
  assigned.label: "no (0)"
- molecule: "Cn1ccc2c(-c3cccnc3Nc3ccc(F)cc3)c[nH]c2c1=O [Compound 85B]"
  assigned.label: "no (0)"
- molecule: "Cn1cc(-c2cccnc2Nc2ccc(F)cc2)c2cc[nH]c2c1=O [Compound 85A]"
  assigned.label: "yes (1)"

###

measurement.target: Recombinant BRD4(BD1) (Homo sapiens, UniProt O60885)
Construct: using the recombinant, individually purified bromodomains of BRD4 (GST-tagged BD1 and BD2)
measurement.description: TR-FRET ligand displacement, recombinant GST-BRD4(BD1)
cond: GST-tagged, with 95% confidence interval
pKd: −log10 of the molar value.
The threshold is inclusive: pKd of exactly 7 counts as YES; values below receive NO.

- compound: "Cn1cc(-c2cccnc2Oc2ccc(F)cc2)c2cc[nH]c2c1=O [Compound 18A]"
  assigned.label: "YES"
- compound: "Cn1cc(-c2cccnc2Oc2ccc(F)c(F)c2)c2cc[nH]c2c1=O [Compound 81A]"
  assigned.label: "YES"
- compound: "Cn1ccc2c(-c3cccnc3Sc3ccc(F)cc3)c[nH]c2c1=O [Compound 84B]"
  assigned.label: "YES"
- compound: "Cn1ccc2c(-c3cccnc3Oc3ccc(F)cc3)c[nH]c2c1=O [Compound 18B]"
  assigned.label: "YES"
- compound: "Cn1cc(-c2cccnc2Oc2cc(F)cc(F)c2)c2cc[nH]c2c1=O [Compound 82A]"
  assigned.label: "YES"
- compound: "Cn1ccc2c(-c3cc(F)cnc3Oc3ccc(F)cc3)c[nH]c2c1=O [Compound 86B]"
  assigned.label: "NO"
- compound: "Cn1cc(-c2cc(F)cnc2Oc2ccc(F)cc2)c2cc[nH]c2c1=O [Compound 86A]"
  assigned.label: "NO"

###

measurement.description: Pharmacokinetics in CD-1 mice, IV
Assay type: in vivo
cond: male, mouse, iv, Plasma, intravenously 5 mg/kg
Description: Analysis of pharmacokinetic parameters of 18A and 18B was performed by the Preclinical Pharmacology Core Lab (UT Southwestern Medical Center). […] The supernatant was spun a second time and then analyzed by LC–MS/MS using a Sciex (Framingham, MA) 4000QTRAP® (positive ESI, multiple-reaction monitoring mode) after separation on an Agilent (Santa Clara, CA) C18 XDB column (5 micron packing, 50 × 4.6 mm size). […]
attribute.measured: MRT inf (min)

- molecule: "Cn1cc(-c2cccnc2Oc2ccc(F)cc2)c2cc[nH]c2c1=O [Compound 18A]"
  unit.text: "min"
  val: 17.9
- molecule: "Cn1ccc2c(-c3cccnc3Oc3ccc(F)cc3)c[nH]c2c1=O [Compound 18B]"
  unit.text: "min"
  val: 25.8

###

Consider the following compounds and their measured Vd readings.
measurement.description: Pharmacokinetics in CD-1 mice, IV
Assay type: in vivo
cond: male, mouse, iv, Plasma, intravenously 5 mg/kg, read-out: Vss

- compound: "Cn1cc(-c2cccnc2Oc2ccc(F)cc2)c2cc[nH]c2c1=O [Compound 18A]"
  unit.text: "L"
  Vd: 0.067
- compound: "Cn1ccc2c(-c3cccnc3Oc3ccc(F)cc3)c[nH]c2c1=O [Compound 18B]"
  unit.text: "L"
  Vd: 0.145

###

The following compounds are listed with their measured GRN Fold-change (Norm. to GAPDH) ± Std. Error values.
Tested on: GRN mRNA
measurement.description: qPCR of GRN mRNA in human NPCs (enhancer screen and follow-up)
Format: cell-based
cond: human NPCs, 24 h, dose 10 µM, relative to DMSO
attribute.measured: GRN Fold-change (Norm. to GAPDH) ± Std. Error

- compound: "Cc1cc(C)c(CNC(=O)c2cc(-c3ccc(CN4CCOCC4)cc3)cc3c2cnn3C2CCCC2)c(=O)[nH]1"
  val: 1.18
- compound: "N#CC[C@H](C1CCCC1)n1cc(-c2ncnc3[nH]ccc23)cn1"
  val: 1.26
- compound: "CCOC(=O)Nc1cc(-c2ccc(C)c(NS(C)(=O)=O)c2)nn2c(C)nnc12"
  val: 3.44
- compound: "O=C(NC1CC1)c1cc(-c2cccs2)on1"
  val: 1.17
- compound: "Cc1c(OCC(F)(F)F)ccnc1C[S+]([O-])c1nc2ccccc2[nH]1 (stereo not drawn)"
  val: 1.37
- compound: "NNCCc1ccc(NC(=O)CCCc2ccccc2)cc1"
  val: 0.92
- compound: "c1ccc([C@@H]2C[C@H]2NC2CCNCC2)cc1"
  val: 0.96
- compound: "Cn1cc(-c2ccncc2)c(-c2ccc(OCc3ccc4ccccc4n3)cc2)n1"
  val: 1.29
- compound: "O=C(Nc1c(Cl)cncc1Cl)c1ccc(OC(F)F)c(OCC2CC2)c1"
  val: 1.01
- compound: "CCOC(=O)CCNc1cc(N2CCc3ccccc3CC2)nc(-c2ccccn2)n1"
  val: 0.76
- compound: "Cc1c[nH]c(-c2cnc(NCCNc3ccc(C#N)cn3)nc2-c2ccc(Cl)cc2Cl)n1"
  val: 0.79
- compound: "COC1CCC(C(=O)c2ccc3nc4c(cc3c2)CCCO4)CC1 (stereo not drawn)"
  val: 1.00
